The reported numbers originate from paper PMC12040169.

System: G. vaginalis
Construct: DSM 4944
Test: microbe, parasite or virus in culture
Parameters: Microbial growth in liquid dilution assay, OD600 relative to DMSO control
Settings: Gardnerella vaginalis, read-out: G. vaginalis, IC50 (µM) estimate
Measurement Name: IC50

What value of measured IC50 is listed for CCc1cccc(OCC(=O)Nc2ccc(S(=O)(=O)Nc3onc(C)c3C)cc2)c1 ?
> 30 µM

====

Assay: in vitro
Parameters: Viability of infected HeLa host cells, resazurin conversion, bulk resorufin fluorescence relative to DMSO
Conditions: human, hela cells; bulk resorufin, mean of 3
Listed here: items and their measured viability at 28.5 h, 1 µM.
The answer is to be given in %; state only the numeric part.

Example molecules with recorded viability at 28.5 h, 1 µM:
{"columns": ["Molecule", "viability at 28.5 h, 1 µM [%]"],
 "data": [
  ["CCOc1ccsc1C(=O)NC1Cc2ccccc2C1 [c16e]", 84.6],
  ["O=C(CC1SC(Nc2ccc(O)cc2)=NC1=O)c1ccccc1 (stereo not shown) [c13e]", 88.7],
  ["Cc1ccc2[nH]c3c(c2c1)CCOC31CCN(Cc2ccccc2-c2ccccc2)CC1 [c22e]", 85.7],
  ["FC(F)(F)c1ccc(N2CCNCC2)nc1OCc1ccc2c(c1)OCCO2 [c46e]", 91.1],
  ["O=C(N/N=C/c1ccc(Sc2cccc3cccnc23)o1)c1cccc(F)c1 [c10e]", 94.1]
]}

What value of measured viability at 28.5 h, 1 µM is listed for CCCCc1ccc(Nc2csc(N)n2)cc1 [c11e] ?
102

What value of measured viability at 28.5 h, 1 µM is listed for COc1c(Br)cc2c(cc(C)n2-c2ccccc2)c1OCC(O)CNC(C)C (stereo not shown) [c5e] ?
92.4

What value of measured viability at 28.5 h, 1 µM is listed for CCCCc1ccc(NC(=N)Nc2nc(C)cc(C)n2)cc1 [c33e] ?
88.2

What value of measured viability at 28.5 h, 1 µM is listed for FC(F)(F)CCN1CCC2(CC1)NCCc1c2[nH]c2ccc(Cl)cc12 [c34e] ?
91.8

What value of measured viability at 28.5 h, 1 µM is listed for O=C(CSc1nnc(-c2cccnc2)o1)c1ccccc1 [c35e] ?
90.5
